Field: Activity inhibition rate Abl/Abl (T315I)(h). Provide a value for each of the compounds that follow.
System: Abl/Abl (T315I)(h)
Experiment: Kinase inhibition activity test, isotope labeling: Abl
Format: biochemical, human
Details: test compound at a concentration of 10 μM
Experimental: The purpose of this experiment was to test the inhibitory activity of the compound of the invention for in vitro kinase with the isotope labeling method (the γ phosphate group on ATP was labeled). In this experiment, the in vitro activity inhibition of such kinases as FLT3, VEGFR2, FLT1, FLT4, RET, c-RAF, B-RAF, c-KIT, PDGFα, PDGFβ, FGFR2, FGFR1, EphA2, EphB2, SRC, ABL, ALK and Met was tested respectively. Staurosporine was reference molecule (or referred to as positive control). […]
Please state the figure in %; there is no need to write the unit.

Inquiry: Please report the measured Activity inhibition rate Abl/Abl (T315I)(h) for C[C@@H](NC(=O)Nc1ccc(Oc2ncnc3[nH]ncc23)cc1)c1ccccc1 [4a-19]
Reply text: 21

Inquiry: Please report the measured Activity inhibition rate Abl/Abl (T315I)(h) for O=C(Nc1ccc(Oc2ncnc3[nH]ncc23)cc1)Nc1ccc(C(F)(F)F)cc1Cl [4a-13]
Reply text: 27

Inquiry: Please report the measured Activity inhibition rate Abl/Abl (T315I)(h) for CC(C)c1cccc(NC(=O)Nc2ccc(Oc3ncnc4[nH]ncc34)c(F)c2)c1 [4a-7]
Reply text: 60

Inquiry: Please report the measured Activity inhibition rate Abl/Abl (T315I)(h) for O=C(Nc1ccc(Oc2ncnc3[nH]ncc23)cc1)Nc1cccc(C(F)(F)F)c1 [4a-6]
Reply text: 79

Inquiry: Please report the measured Activity inhibition rate Abl/Abl (T315I)(h) for O=C(Nc1ccc(Oc2ncnc3[nH]ncc23)cc1)Nc1ccc(C(F)(F)F)cc1 [4a-1]
Reply text: 17

Inquiry: Please report the measured Activity inhibition rate Abl/Abl (T315I)(h) for O=C(Nc1ccccc1)Nc1ccc(Oc2ncnc3[nH]ncc23)cc1 [4a-15]
Reply text: 99

Inquiry: Please report the measured Activity inhibition rate Abl/Abl (T315I)(h) for O=C(Nc1ccc(C(F)(F)F)cc1)Nc1ccc(Oc2ncnc3[nH]ncc23)c(F)c1 [4a-9]
Reply text: 15

Inquiry: Please report the measured Activity inhibition rate Abl/Abl (T315I)(h) for O=C(Nc1ccc(Oc2ncnc3[nH]ncc23)cc1)Nc1ccc(Cl)c(C(F)(F)F)c1 [4a-2]
Reply text: 86

Inquiry: Please report the measured Activity inhibition rate Abl/Abl (T315I)(h) for C[C@H](NC(=O)Nc1ccc(Oc2ncnc3[nH]ncc23)cc1)c1ccccc1 [4a-18]
Reply text: 45

Inquiry: Please report the measured Activity inhibition rate Abl/Abl (T315I)(h) for O=C(Nc1ccc(Oc2ncnc3[nH]ncc23)cc1)Nc1cc(C(F)(F)F)cc(C(F)(F)F)c1 [4a-12]
Reply text: 78

Inquiry: Please report the measured Activity inhibition rate Abl/Abl (T315I)(h) for O=C(Nc1ccc(Oc2ncnc3[nH]ncc23)c(F)c1)Nc1ccc(Cl)c(C(F)(F)F)c1 [4a-10]
Reply text: 67

====

Biological target: FGFR2 (Homo sapiens, UniProt P21802)
Sequence (P21802 22-821): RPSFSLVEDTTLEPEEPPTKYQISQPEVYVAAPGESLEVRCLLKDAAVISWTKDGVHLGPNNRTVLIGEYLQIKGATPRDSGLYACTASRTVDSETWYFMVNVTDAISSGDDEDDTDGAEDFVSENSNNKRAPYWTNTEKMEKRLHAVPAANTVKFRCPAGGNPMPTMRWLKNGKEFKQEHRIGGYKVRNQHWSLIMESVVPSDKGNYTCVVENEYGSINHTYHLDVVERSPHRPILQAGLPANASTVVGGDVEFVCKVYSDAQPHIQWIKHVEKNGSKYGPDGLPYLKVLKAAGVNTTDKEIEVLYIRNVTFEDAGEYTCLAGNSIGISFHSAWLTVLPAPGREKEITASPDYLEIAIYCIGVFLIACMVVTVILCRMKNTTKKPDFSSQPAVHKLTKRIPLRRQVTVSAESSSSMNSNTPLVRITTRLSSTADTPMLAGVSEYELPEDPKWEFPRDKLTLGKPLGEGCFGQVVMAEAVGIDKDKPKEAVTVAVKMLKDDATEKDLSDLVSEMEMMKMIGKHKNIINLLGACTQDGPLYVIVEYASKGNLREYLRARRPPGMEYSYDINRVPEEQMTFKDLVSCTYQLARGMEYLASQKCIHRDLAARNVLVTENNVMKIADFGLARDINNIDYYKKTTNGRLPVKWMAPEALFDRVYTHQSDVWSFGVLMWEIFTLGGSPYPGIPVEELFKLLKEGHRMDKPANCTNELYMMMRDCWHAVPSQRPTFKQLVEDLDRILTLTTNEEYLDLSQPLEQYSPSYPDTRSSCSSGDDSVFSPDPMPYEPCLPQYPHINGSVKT
Experiment: Kinase inhibition activity test, isotope labeling: FGFR2
Type: biochemical
Settings: test compound at a concentration of 10 μM
Measure: Activity inhibition rate FGFR2 (h) (%)
Please state the figure in %; there is no need to write the unit.

Inquiry: # return Activity inhibition rate FGFR2 (h) for O=C(Nc1ccccc1)Nc1ccc(Oc2ncnc3[nH]ncc23)cc1 [4a-15] , test system: FGFR2 (Homo sapiens, UniProt P21802)
Reply text: 100

Inquiry: # return Activity inhibition rate FGFR2 (h) for O=C(Nc1ccc(Oc2ncnc3[nH]ncc23)cc1)Nc1ccc(C(F)(F)F)cc1Cl [4a-13] , test system: FGFR2 (Homo sapiens, UniProt P21802)
Reply text: 13

====

Biological target: PDGFRα (Homo sapiens, UniProt P16234)
Sequence (P16234 24-1089): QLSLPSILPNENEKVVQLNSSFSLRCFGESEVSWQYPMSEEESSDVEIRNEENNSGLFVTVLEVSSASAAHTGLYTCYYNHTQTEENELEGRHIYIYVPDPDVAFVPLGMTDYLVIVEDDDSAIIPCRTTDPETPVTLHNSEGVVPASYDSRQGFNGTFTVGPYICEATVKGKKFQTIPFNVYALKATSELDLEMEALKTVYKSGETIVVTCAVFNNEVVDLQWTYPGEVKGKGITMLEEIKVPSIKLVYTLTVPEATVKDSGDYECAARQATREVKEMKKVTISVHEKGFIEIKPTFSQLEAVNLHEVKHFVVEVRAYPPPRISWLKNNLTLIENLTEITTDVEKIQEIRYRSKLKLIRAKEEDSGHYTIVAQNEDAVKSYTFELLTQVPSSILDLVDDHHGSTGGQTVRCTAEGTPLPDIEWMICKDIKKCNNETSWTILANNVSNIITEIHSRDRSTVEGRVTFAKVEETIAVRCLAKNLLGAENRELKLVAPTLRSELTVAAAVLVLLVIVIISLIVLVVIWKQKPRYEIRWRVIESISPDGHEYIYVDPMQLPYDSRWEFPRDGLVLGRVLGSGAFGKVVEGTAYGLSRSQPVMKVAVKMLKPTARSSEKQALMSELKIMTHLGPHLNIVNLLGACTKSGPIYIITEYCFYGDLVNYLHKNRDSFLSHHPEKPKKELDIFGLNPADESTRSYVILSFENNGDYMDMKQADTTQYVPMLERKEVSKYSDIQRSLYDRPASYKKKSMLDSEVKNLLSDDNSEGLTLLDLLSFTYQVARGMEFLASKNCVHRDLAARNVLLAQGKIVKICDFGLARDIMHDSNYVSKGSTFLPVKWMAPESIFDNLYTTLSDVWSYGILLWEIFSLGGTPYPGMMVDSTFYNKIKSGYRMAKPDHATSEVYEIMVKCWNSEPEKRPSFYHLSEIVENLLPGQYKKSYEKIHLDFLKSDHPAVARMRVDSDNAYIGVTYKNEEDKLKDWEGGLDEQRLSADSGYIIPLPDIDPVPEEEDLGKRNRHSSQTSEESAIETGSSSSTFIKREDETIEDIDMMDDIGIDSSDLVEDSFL
Assay: Kinase inhibition activity test, isotope labeling: PDGFRα
Assay type: biochemical
Details: test compound at a concentration of 10 μM; read-out: Activity inhibition rate PDGFRα (h)
Field: inhibition at 10 µM. Provide a value for each of the compounds that follow.

Inquiry: # return inhibition at 10 µM for COc1ccc(NC(=O)Nc2ccc(NC(=O)N3C=NC=C4NNC=C43)cc2)cc1 , test system: PDGFRα (Homo sapiens, UniProt P16234)
Reply text: > 30%

Inquiry: # return inhibition at 10 µM for COc1cccc(NC(=O)Nc2ccc(Nc3ncnc4[nH]ncc34)cc2)c1 , test system: PDGFRα (Homo sapiens, UniProt P16234)
Reply text: > 30%

Inquiry: # return inhibition at 10 µM for O=C(Nc1ccc(Oc2ncnc3[nH]ncc23)cc1)Nc1ccc(C(F)(F)F)cc1 , test system: PDGFRα (Homo sapiens, UniProt P16234)
Reply text: 63%

Inquiry: # return inhibition at 10 µM for O=C(Nc1cccc(Nc2ncnc3[nH]ncc23)c1)Nc1ccc(F)c(Cl)c1 , test system: PDGFRα (Homo sapiens, UniProt P16234)
Reply text: > 30%

Inquiry: # return inhibition at 10 µM for O=C(Nc1ccc(Oc2ncnc3[nH]ncc23)cc1)Nc1cccc(C(F)(F)F)c1 , test system: PDGFRα (Homo sapiens, UniProt P16234)
Reply text: 97%

Inquiry: # return inhibition at 10 µM for Cc1cc(C)c(NC(=O)Nc2ccc(NC(=O)N3C=NC=C4NNC=C43)cc2)c(C)c1 , test system: PDGFRα (Homo sapiens, UniProt P16234)
Reply text: > 30%

Inquiry: # return inhibition at 10 µM for C[C@@H](NC(=O)Nc1ccc(Nc2ncnc3[nH]ncc23)cc1)c1ccccc1 , test system: PDGFRα (Homo sapiens, UniProt P16234)
Reply text: > 30%

Inquiry: # return inhibition at 10 µM for O=C(Nc1ccc(NC(=O)N2C=NC=C3NNC=C32)cc1)Nc1ccc(Cl)c(C(F)(F)F)c1 , test system: PDGFRα (Homo sapiens, UniProt P16234)
Reply text: > 30%

Inquiry: # return inhibition at 10 µM for O=C(Nc1ccc(Oc2ncnc3[nH]ncc23)cc1)Nc1cc(C(F)(F)F)on1 , test system: PDGFRα (Homo sapiens, UniProt P16234)
Reply text: > 50%

Inquiry: # return inhibition at 10 µM for CC(C)n1ncc2c(Oc3ccc(NC(=O)Nc4cc(C(C)(C)C)on4)cc3)ncnc21 , test system: PDGFRα (Homo sapiens, UniProt P16234)
Reply text: > 30%

Inquiry: # return inhibition at 10 µM for O=C(Nc1ccc(Sc2ncnc3[nH]ncc23)cc1)Nc1ccc(C(F)(F)F)cc1 , test system: PDGFRα (Homo sapiens, UniProt P16234)
Reply text: > 50%

Inquiry: # return inhibition at 10 µM for CC(C)(C)c1cc(NC(=O)Nc2ccc(Oc3ncnc4[nH]ncc34)cc2)no1 , test system: PDGFRα (Homo sapiens, UniProt P16234)
Reply text: > 50%

====

Target: c-KIT (Homo sapiens)
Sequence (P10721 26-976): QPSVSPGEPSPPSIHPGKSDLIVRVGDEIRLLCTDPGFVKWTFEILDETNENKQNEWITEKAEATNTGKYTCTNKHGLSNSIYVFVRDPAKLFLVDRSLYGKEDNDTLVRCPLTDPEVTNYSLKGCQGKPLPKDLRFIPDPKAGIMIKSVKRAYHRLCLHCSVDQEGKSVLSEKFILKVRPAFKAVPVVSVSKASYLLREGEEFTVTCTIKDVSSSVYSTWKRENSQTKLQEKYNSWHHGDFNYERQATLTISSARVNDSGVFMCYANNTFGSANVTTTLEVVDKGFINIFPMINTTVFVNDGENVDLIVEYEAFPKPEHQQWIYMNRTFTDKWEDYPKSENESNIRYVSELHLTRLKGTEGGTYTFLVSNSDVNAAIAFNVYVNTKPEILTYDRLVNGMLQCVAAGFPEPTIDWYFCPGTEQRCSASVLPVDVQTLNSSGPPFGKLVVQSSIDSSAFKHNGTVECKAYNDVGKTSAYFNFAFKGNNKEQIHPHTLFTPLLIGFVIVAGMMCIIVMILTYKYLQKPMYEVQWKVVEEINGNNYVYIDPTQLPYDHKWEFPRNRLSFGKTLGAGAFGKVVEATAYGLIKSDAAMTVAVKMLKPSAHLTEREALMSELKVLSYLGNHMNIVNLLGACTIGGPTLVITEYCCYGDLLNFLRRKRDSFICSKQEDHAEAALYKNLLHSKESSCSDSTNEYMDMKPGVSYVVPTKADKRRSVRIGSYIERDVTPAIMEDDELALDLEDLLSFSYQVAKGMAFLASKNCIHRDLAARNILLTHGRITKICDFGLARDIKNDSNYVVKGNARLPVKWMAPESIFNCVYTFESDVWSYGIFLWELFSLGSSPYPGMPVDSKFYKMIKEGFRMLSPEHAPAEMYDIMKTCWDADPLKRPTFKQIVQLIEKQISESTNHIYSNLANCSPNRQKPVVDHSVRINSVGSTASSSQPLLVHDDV
Test: Kinase inhibition activity test, isotope labeling: c-KIT
Assay type: biochemical
Conditions: test compound at a concentration of 10 μM
Think of 70% as a floor: if Activity inhibition rate c-Kit (h) stands on it or above, it is true; beneath it, false.

Inquiry: Kindly determine if Activity inhibition rate c-Kit (h) recorded for CC(C)c1cccc(NC(=O)Nc2ccc(Oc3ncnc4[nH]ncc34)c(F)c2)c1 is above or exactly 70%.
Reply text: true

Inquiry: Kindly determine if Activity inhibition rate c-Kit (h) recorded for CC(C)(C)c1cc(NC(=O)Nc2ccc(Oc3ncnc4[nH]ncc34)cc2)on1 is above or exactly 70%.
Reply text: true

Inquiry: Kindly determine if Activity inhibition rate c-Kit (h) recorded for C[C@H](NC(=O)Nc1ccc(Oc2ncnc3[nH]ncc23)cc1)c1ccccc1 is above or exactly 70%.
Reply text: true

Inquiry: Kindly determine if Activity inhibition rate c-Kit (h) recorded for O=C(Nc1ccc(Oc2ncnc3[nH]ncc23)cc1)Nc1cc(C(F)(F)F)cc(C(F)(F)F)c1 is above or exactly 70%.
Reply text: false

Inquiry: Kindly determine if Activity inhibition rate c-Kit (h) recorded for O=C(Nc1ccc(Oc2ncnc3[nH]ncc23)cc1)Nc1ccc(Cl)c(C(F)(F)F)c1 is above or exactly 70%.
Reply text: true

Inquiry: Kindly determine if Activity inhibition rate c-Kit (h) recorded for O=C(Nc1ccc(Sc2ncnc3[nH]ncc23)cc1)Nc1cccc(C(F)(F)F)c1 is above or exactly 70%.
Reply text: true

Inquiry: Kindly determine if Activity inhibition rate c-Kit (h) recorded for O=C(Nc1ccccc1)Nc1ccc(Oc2ncnc3[nH]ncc23)cc1 is above or exactly 70%.
Reply text: false

Inquiry: Kindly determine if Activity inhibition rate c-Kit (h) recorded for O=C(Nc1ccc(C(F)(F)F)cc1)Nc1ccc(Oc2ncnc3[nH]ncc23)c(F)c1 is above or exactly 70%.
Reply text: false

Inquiry: Kindly determine if Activity inhibition rate c-Kit (h) recorded for O=C(Nc1ccc(Oc2ncnc3[nH]ncc23)cc1)Nc1ccc(C(F)(F)F)cc1Cl is above or exactly 70%.
Reply text: true

Inquiry: Kindly determine if Activity inhibition rate c-Kit (h) recorded for CC(C)(C)c1cc(NC(=O)Nc2ccc(Oc3ncnc4[nH]ncc34)cc2)n(-c2ccccc2)n1 is above or exactly 70%.
Reply text: true

Inquiry: Kindly determine if Activity inhibition rate c-Kit (h) recorded for O=C(Nc1ccc(Oc2ncnc3[nH]ncc23)c(F)c1)Nc1ccc(Cl)c(C(F)(F)F)c1 is above or exactly 70%.
Reply text: false

Inquiry: Kindly determine if Activity inhibition rate c-Kit (h) recorded for C[C@@H](NC(=O)Nc1ccc(Oc2ncnc3[nH]ncc23)cc1)c1ccccc1 is above or exactly 70%.
Reply text: true

Inquiry: Kindly determine if Activity inhibition rate c-Kit (h) recorded for CC(C)(C)c1cc(NC(=O)Nc2ccc(Sc3ncnc4[nH]ncc34)cc2)no1 is above or exactly 70%.
Reply text: true

Inquiry: Kindly determine if Activity inhibition rate c-Kit (h) recorded for CC(C)(C)c1cc(NC(=O)Nc2ccc(Oc3ncnc4[nH]ncc34)c(F)c2)no1 is above or exactly 70%.
Reply text: true
